Reported CL by item:
Test system: Plasma
EXPERIMENTAL_DETAILS: Drug metabolism in CD-1 mouse plasma assessed as maximum intrinsic clearance for hydrolysis metabolite formation by LC-MS/MS analysis
Assay type: ADME, cell-free
Value expressed in uL/min.ml; do not type the unit.

Some molecules with recorded CL:
structure_as_smiles=CC(C)NC(=O)[C@H]1CC[C@@H](n2/c(=N/C(=O)c3ccc(F)cc3)[nH]c3ccc(CN4CCC(C(C)(C)O)CC4)cc32)CC1 assay_value=71.4
structure_as_smiles=CC(C)NC(=O)[C@H]1CC[C@@H](n2/c(=N/C(=O)c3cc(F)cc(F)c3)[nH]c3ccc(CN4CCC(C(C)(C)O)CC4)cc32)CC1 assay_value=10.7
structure_as_smiles=CC(C)NC(=O)[C@H]1CC[C@@H](n2/c(=N/C(=O)c3cc(F)cc(Cl)c3)[nH]c3ccc(CN4CCC(C(C)(C)O)CC4)cc32)CC1 assay_value=2.09

Now take the following molecule into account.
Prompt: Look at this molecule and give its reported CL. CC(C)NC(=O)[C@H]1CC[C@@H](n2/c(=N/C(=O)c3cccc(C(F)(F)F)c3)[nH]c3ccc(CN4CCC(C(C)(C)O)CC4)cc32)CC1
Completion: 1.68

Just for reference, ChEMBL document CHEMBL3526060 is where these values come from.
